# Test system: Key Broadleaf Weed and Crop Species
# test_summary: Post-emergent Test II herbicidal activity (Table 5)
# Type: in vivo
# condition_label: post-emergence, 336 h; EPHHL: wild poinsettia (Euphorbia heterophylla); application rate 140 g ai/ha; 14 days after application; read-out: Visual Growth Reduction (%) 14 Days After Application, EPHHL
assay_readout: pest or weed control at 140 g/ha

Give reported pest or weed control at 140 g/ha value for COC(=O)c1nc(-c2ccc(I)c(F)c2F)cc(N)c1Cl
95 to 100%

Fill in pest or weed control at 140 g/ha for record COC(=O)c1nc(-c2ccc(C#N)c(F)c2)c(F)c(N)c1Cl
95 to 100%

Please indicate pest or weed control at 140 g/ha recorded for Nc1c(F)c(-c2ccc(Br)cc2)nc(C(=O)O)c1Cl
95 to 100%

Specify pest or weed control at 140 g/ha for COC(=O)c1nc(-c2ccccc2)nc(N)c1OC and stop.
85 to 94%

Quick one: give measured pest or weed control at 140 g/ha for COC(=O)c1nc(-c2ccc(I)cc2F)nc(N)c1OC
95 to 100%

---

# Tested on: ALOMY: black-grass (Alopecurus myosuroides)
# test_summary: Post-emergent Test III, herbicidal activity in wheat and barley
# Format: in vivo
# condition_label: Alopecurus myosuroides, post-emergence, 504 h; 70 g ai/ha; read-out: Visual Growth Reduction (%) 21 Days After Application ALOMY
I'd appreciate it if you could supply pest or weed control at 70 g/ha values for the items below.

Give ALOMY: black-grass (Alopecurus myosuroides) pest or weed control at 70 g/ha for the following compound: C=Cc1c(C(=O)O)nc(-c2ccc(Cl)c(F)c2)c(F)c1N
45 to 59%

// fetch pest or weed control at 70 g/ha; item: COC(=O)c1nc(-c2ccc(C#N)cc2)c(F)c(N)c1Cl ; system: ALOMY: black-grass (Alopecurus myosuroides)
0 to 29%

State the measured pest or weed control at 70 g/ha (ALOMY: black-grass (Alopecurus myosuroides)) of COC(=O)c1nc(-c2ccc(Cl)c(F)c2)c(F)c(N)c1Cl
60 to 74%

Give pest or weed control at 70 g/ha for Nc1c(F)c(-c2ccc(I)cc2)nc(C(=O)O)c1Cl tested on ALOMY: black-grass (Alopecurus myosuroides).
85 to 94%

# lookup: ALOMY: black-grass (Alopecurus myosuroides) pest or weed control at 70 g/ha, key = Nc1cc(-c2ccc(Br)c(F)c2F)nc(C(=O)O)c1Cl
45 to 59%

---

# Test system: Key Grass and Sedge Weeds as well as Grass Crops
# test_summary: Post-emergent Test II herbicidal activity (Table 6)
# Type: in vivo
# condition_label: post-emergence, 336 h, TRZSS (wheat, Triticum aestivum), crop, 70 g ai/ha, read-out: Visual Growth Reduction (%) 14 Days After Application, TRZSS
assay_readout: pest or weed control at 70 g/ha

Annotate the compound Cc1ccc(-c2nc(C(=O)O)c(Cl)c(N)c2F)cc1F [Compound 212] with its measured pest or weed control at 70 g/ha.
60 to 74%

Tell me its pest or weed control at 70 g/ha given Cc1ccc(-c2nc(C(=O)O)c(Cl)c(N)c2F)c(F)c1F [Compound 210] as the entry.
0 to 29%

Kindly indicate its recorded pest or weed control at 70 g/ha. Item: COC(=O)c1nc(-c2ccc(C(F)(F)F)c(F)c2F)c(F)c(N)c1Cl [Compound 149]
30 to 44%

Determine its reported pest or weed control at 70 g/ha: COC(=O)c1nc(-c2ccc(C#N)c(F)c2F)c(F)c(N)c1Cl [Compound 160]
0 to 29%

Provide only the value of recorded pest or weed control at 70 g/ha for Nc1c(F)c(-c2ccc(C(F)(F)F)c(F)c2F)nc(C(=O)O)c1Cl [Compound 167]
60 to 74%

Kindly indicate its recorded pest or weed control at 70 g/ha. Item: Nc1cc(-c2ccc(I)cc2)nc(C(=O)O)c1Cl [Compound 4]
75 to 84%

Return the recorded pest or weed control at 70 g/ha value; entry: COC(=O)c1nc(-c2ccc(F)cc2)c(F)c(N)c1Cl [Compound 204]
45 to 59%

Please list pest or weed control at 70 g/ha recorded for the compound COC(=O)c1nc(-c2cccc(F)c2F)c(F)c(N)c1Cl [Compound 199]
0 to 29%

For COC(=O)c1nc(-c2ccc(I)c(F)c2F)c(F)c(N)c1Cl [Compound 99] , write its pest or weed control at 70 g/ha.
45 to 59%
